# target_system: human 11βHSD1 enzyme (Homo sapiens (Human))
# method_summary: biochemical
# reported_conditions: read-out: % inhibition of human 11-βHSD
readout: inhibition at 30 µM (%)
Output spec: scalar in %, unitless text.

// known answers, use as guide
CCCSc1nc(N2CCC(C(=O)O)C(C)C2)ccc1C(=O)NC1CCCCC1 (centres unmarked) = 89
CCCSc1nc(N2CC(OCC(=O)O)C2)ccc1C(=O)NC1CCCCC1 = 87
O=C(O)CO[C@@H]1CCN(c2ccc(C(=O)NC3C4CC5CC(C4)CC3C5)c(SC3CCCCC3)n2)C1 (some centres unmarked) = 84
O=C(O)C[C@@H]1CCCN(c2ccc(C(=O)NC3CCCCC3)c(N3CCC(c4ccc(F)cc4)C3)n2)C1 (some centres unmarked) = 95
O=C(O)C[C@@H]1CCCN(c2ccc(C(=O)NC3CCCCC3)c(SCCc3cccnc3)n2)C1 = 91

Asked: Data request, read-out inhibition at 30 µM, for CCCSc1nc(N2CC[C@H](CC(=O)O)C2)ccc1C(=O)N[C@H]1C2CC3CC1C[C@@](O)(C3)C2
Given back: 88

Asked: Need inhibition at 30 µM of CCCSc1nc(N2CCC[C@@H](CC(=O)O)C2)ccc1C(=O)N(CC)C1CCCCC1 , thanks.
Given back: 94

Asked: Quick one: inhibition at 30 µM for O=C(O)C[C@H]1CCCN(c2ccc(C(=O)NC3CCCCC3)c(SC3CCCC3)n2)C1 ?
Given back: 89

###

# target_system: human 11βHSD1 enzyme (Homo sapiens (Human), UniProt P28845)
# Sequence (P28845 whole entry): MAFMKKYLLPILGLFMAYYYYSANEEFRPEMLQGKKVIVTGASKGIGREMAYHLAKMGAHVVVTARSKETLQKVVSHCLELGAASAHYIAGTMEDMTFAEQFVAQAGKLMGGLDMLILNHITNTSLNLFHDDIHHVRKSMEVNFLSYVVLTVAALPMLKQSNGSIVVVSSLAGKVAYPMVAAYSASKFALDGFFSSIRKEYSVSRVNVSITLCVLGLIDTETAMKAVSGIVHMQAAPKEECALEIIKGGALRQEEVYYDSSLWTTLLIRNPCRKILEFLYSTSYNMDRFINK
# method_summary: biochemical
# reported_conditions: read-out: % inhibition of human 11-βHSD
readout: inhibition at 30 µM (%)
The reply should be a number in %, with the unit left off.

CCCSc1nc(N2CCC[C@@H](CC(=O)O)C2)ccc1C(=O)N(C(C)C)C1CCCCC1 = 92
O=C(O)C[C@@H]1CCCN(c2ccc(C(=O)NC3CCCCC3)c(OCCc3cccnc3)n2)C1 = 98
CCCOc1nc(N2CCCC(C(C)(C)C(=O)O)C2)ccc1C(=O)N[C@H]1C2CC3CC1C[C@](O)(C3)C2 (stereo partly shown) = 95

Asked: Notebook entry, human 11βHSD1 enzyme (Homo sapiens (Human), UniProt P28845) assay: inhibition at 30 µM of CCCSc1nc(N2CCC[C@H](CC(=O)O)C2)ccc1C(=O)N[C@H]1C2CC3CC1C[C@@](O)(C3)C2 = ?
Given back: 89

###

# target_system: human 11βHSD1 enzyme (Homo sapiens (Human), UniProt P28845)
# method_summary: biochemical
# reported_conditions: read-out: % inhibition of human 11-βHSD
Rule: inhibition at 30 µM under 90% gives Not satisfied, otherwise Satisfied.

Some solved cases for reference:
CCCSc1nc(Oc2ccc(C(=O)O)cc2)ccc1C(=O)NC1CCCCC1 [Example 16] = Not satisfied
CCCSc1nc(N2CCC(C3(C(=O)O)CCC3)CC2)ccc1C(=O)NC1CCCCC1 [Example 49] = Not satisfied
CCCSc1nc(N2CCCC(OC(C)(C)C(=O)O)C2)ccc1C(=O)NC1CCCCC1 (stereo not shown) [Example 45] = Not satisfied

Asked: Hello, I need to know if O=C(O)CO[C@@H]1CCN(c2ccc(C(=O)NC3C4CC5CC(C4)CC3C5)c(SC3CCCC3)n2)C1 (stereo partly shown) [Example 70] has measured inhibition at 30 µM not below 90%. Thanks!
Given back: Satisfied

###

# target_system: UniProtKB P28845
# method_summary: biochemical
# reported_conditions: read-out: % inhibition of human 11-βHSD
readout: inhibition at 30 µM

Observe how each entry below is paired with its result.
O=C(O)C[C@@H]1CCCN(c2ccc(C(=O)NC3CCCCC3)c(SC3CCCC3)n2)C1 [Example 52] = 92%
CCCSc1nc(N2CCCC(C(=O)O)CC2)ccc1C(=O)NC1CCCCC1 (stereo not drawn) [Example 31] = 94%
O=C(O)C[C@@H]1CCCN(c2ccc(C(=O)NC3CCCCC3)c(N3CCc4ccccc4C3)n2)C1 [compound 144] = 93%
CCCSc1nc(N2CCC[C@@H](CC(=O)O)C2)ccc1C(=O)N(C)C1CCOCC1 [Example 174] = 92%
O=C(N[C@H]1C2CC3CC1C[C@](OC(F)F)(C3)C2)c1ccc(N2CC[C@@H](C(=O)O)C2)nc1SC1CCCC1 [Example 182] = 91%

Now turn to the next compound.
Asked: Value lookup for inhibition at 30 µM; key = CC(C)CCSc1nc(N2CC[C@@H](C(=O)O)C2)ccc1C(=O)N[C@H]1C2CC3CC1C[C@@](O)(C3)C2 [Example 105]
Given back: 92%

###

Dear all, this message contains IC50 results, target or system human 11βHSD1 enzyme (Homo sapiens (Human), UniProt P28845).
Respond numerically; units are nM and should not be typed.

CCCSc1nc(N2CCC[C@H](CC(=O)O)C2)ccc1C(=O)NC1CCCCC1 [Example 1] = 95

Asked: Endpoint output: IC50 of CCCSc1nc(N2CCC[C@@H](CC(=O)O)C2)ccc1C(=O)NC1CCCCC1 [Example 7] . Value?
Given back: 7

###

# target_system: human 11βHSD1 enzyme (Homo sapiens (Human), UniProt P28845)
# method_summary: biochemical
# reported_conditions: read-out: % inhibition of human 11-βHSD
readout: inhibition at 30 µM

CC(C)(O)C1CCCN(C(=O)c2ccc(N3CCC[C@@H](CC(=O)O)C3)nc2SC2CCCC2)C1 (some centres unmarked) [Example 128] = 91%

Asked: For CCCSc1nc(N2CCC[C@H](CC(=O)O)C2)ccc1C(=O)NC1CCCCC1 [Example 1] , what is its reported inhibition at 30 µM?
Given back: 87%

Asked: Consider the compound CCCSc1nc(N2CCC[C@@H](CC(=O)O)C2)ccc1C(=O)N1CCC(c2ccccc2C(F)(F)F)C1 (some centres unmarked) [Example 126] and give its measured inhibition at 30 µM.
Given back: 87%

Asked: Tell me the measured inhibition at 30 µM of CCCSc1nc(N2CCCC(C)(C(=O)O)C2)ccc1C(=O)NC1CCCCC1 (centres unmarked) [Example 47] , please.
Given back: 90%

Asked: Which inhibition at 30 µM value belongs to CCCSc1nc(N2CC[C@@H](CC(=O)O)C2)ccc1C(=O)NC1C2CC3CC(C2)CC1C3 (some centres unmarked) [Example 62] ?
Given back: 89%

Asked: # get_value(readout='inhibition at 30 µM', item= CCCSc1nc(N2CCC[C@@H](CC(=O)O)C2)ccc1C(=O)NC1C2CC3CC(C2)CC1C3 (some centres unmarked) [Example 59] )
Given back: 94%

Asked: Item CCCSc1nc(Sc2cccc(C(=O)O)c2)ccc1C(=O)NC1CCCCC1 [Example 14] has what recorded inhibition at 30 µM?
Given back: 78%

Asked: Fill in: inhibition at 30 µM of CCCSc1nc(N2CCC(C)(C(=O)O)CC2)ccc1C(=O)N[C@H]1C2CC3CC1C[C@@](O)(C3)C2 [Example 88] is ___
Given back: 89%

###

# target_system: human 11βHSD1 enzyme (Homo sapiens (Human), UniProt P28845)
# method_summary: biochemical
# reported_conditions: read-out: % inhibition of human 11-βHSD
inhibition at 30 µM for assorted compounds
Return type: number; implicit unit %.

Worked examples follow.
CCCSc1nc(N2CCC[C@@H](CC(=O)O)C2)ccc1C(=O)N[C@H]1C2CC3CC1C[C@](OC(F)F)(C3)C2 = 87
CCCSc1nc(Oc2ccc(CCC(=O)O)cc2)ccc1C(=O)NC1CCCCC1 = 81
CCCSc1nc(Oc2ccc(OCC(=O)O)cc2)ccc1C(=O)NC1CCCCC1 = 89

Asked: Look at this compound and give its reported inhibition at 30 µM. CCCSc1nc(N2CCC(C(C)(C)C(=O)O)CC2)ccc1C(=O)NC1CCCCC1
Given back: 75

Asked: Recorded inhibition at 30 µM for CCCSc1nc(N2CCC[C@@H](CC(=O)O)C2)ccc1C(=O)N1CCC(c2cnccn2)C1 (stereo partly shown) , please?
Given back: 89

###

# target_system: human 11βHSD1 enzyme (Homo sapiens (Human), UniProt P28845)
# reported_conditions: test concentration of 30 μM of compound
readout: % inhibition of human 11-βHSD (%)
The reply should be a number in %, with the unit left off.

Examples with answers:
O=C(O)C[C@@H]1CCCN(c2ccc(C(=O)N[C@H]3C4CC5CC3C[C@@](O)(C5)C4)c(C3CC3)n2)C1 = 95
Cc1nc(N2CCC[C@@H](CC(=O)O)C2)ccc1C(=O)NC1C2CC3CC(C2)CC1C3 (some centres unmarked) = 84
O=C(O)C[C@@H]1CCCN(c2ccc(C(=O)N[C@H]3C4CC5CC3C[C@@](O)(C5)C4)c(SCc3ccccc3)n2)C1 = 90
O=C(O)C[C@@H]1CCCN(c2ccc(C(=O)NC3CCCCC3)c(N3CCOCC3)n2)C1 = 78
Cc1nc(N2CCC[C@@H](CC(=O)O)C2)ccc1C(=O)NC1CCCCC1 = 55

Asked: Sample O=C(O)C[C@@H]1CCCN(c2ccc(C(=O)NC3CCCCC3)c(C3CC3)n2)C1 — what was its % inhibition of human 11-βHSD?
Given back: 95

Asked: Would you mind telling me what % inhibition of human 11-βHSD value was observed for O=C(O)C[C@@H]1CCCN(c2ccc(C(=O)NC3CCCCC3)cn2)C1 ?
Given back: 58

Asked: Reported % inhibition of human 11-βHSD, compound Cc1nc(N2CCC[C@@H](CC(=O)O)C2)ccc1C(=O)NC12CC3CC(CC(C3)C1)C2 : ____
Given back: 80

Asked: Would you mind telling me what % inhibition of human 11-βHSD value was observed for O=C(O)C[C@@H]1CCCN(c2ccc(C(=O)NC3C4CC5CC3CC(O)(C5)C4)c(SCCc3ccccc3)n2)C1 (some centres unmarked) ?
Given back: 88

Asked: Please look up its % inhibition of human 11-βHSD: O=C(O)C[C@@H]1CCCN(c2ccc(C(=O)NC3C4CC5CC(C4)CC3C5)c(C3CC3)n2)C1 (some centres unmarked)
Given back: 95

Asked: Returns the measured % inhibition of human 11-βHSD for the input compound. Input: O=C(O)C[C@@H]1CCCN(c2ccc(C(=O)NC3CCCCC3)c(N3CCCC3)n2)C1
Given back: 94

Data origin: patent US8673938B2
